Test system: SK-MEL-28 melanoma
protocolSummary: NCI tumour cell line growth inhibition, 48 h
assayReadout: TGI (µM)
Use µM as the unit, but write only the number.

Enquiry: Requested read-out: TGI. Entry: CO/N=C(\C)c1ccc(Nc2c3ccccc3nc3occc23)cc1
Return: 8.62

Enquiry: Requested field: TGI. Item: C=C(C)C(=O)O[C@H]1C/C(CO)=C/CCC(=C)C(OC(C)=O)[C@H]2OC(=O)C(=C)[C@H]12 (stereo not given in full)
Return: 20.6

Enquiry: Please report the recorded TGI for CC[C@]1(O)CC(OC2CC(N(C)C)C(O)C(C)O2)c2c(cc3c(c2O)C(=O)c2c(O)cccc2C3=O)[C@@H]1C(=O)OC (stereo not given in full) .
Return: 3.04

Enquiry: Any idea what TGI was measured for COc1ccc(Oc2cccc(/C=C3/C(=O)Nc4ccccc43)c2)cc1 ?
Return: 23.6

Enquiry: Value lookup for TGI; key = FC(F)(F)c1nc(N2CCCC2)ncc1-c1nnnn1-c1ccc(Cl)cc1
Return: 74.8

Enquiry: Consider the molecule COc1ccc(/C=C2\CCC(C)C3=C(c4ccc(OC)c(OC)c4)C(C#N)=C(N)OC32)cc1OC (stereo not given) and give its measured TGI.
Return: 31.7

Enquiry: So what's the measured TGI for this one? CC(C)/C=C1\CCC(CN2CCCC2)C1=O (stereo not given)
Return: 32.9

Enquiry: Bench note: what TGI did COC(=O)CCC(=O)C(=O)OC show?
Return: 60400

====

System: KM12 colon
protocolSummary: NCI tumour cell line growth inhibition, 48 h
Where a name gives a salt, the structure may show the parent alone. Where a SMILES comes first, the peptide text is derived from it. The star is where a group is joined. Tfa = O=C(C(F)(F)F)*
Exercise: state measured TGI for each of the compounds provided.

Enquiry: If you can, please state the reported TGI value of CC(=O)N[C@@H](Cc1ccc(OP(=O)(O)O)cc1)C(=O)N[C@H]1CCC(=O)N2CCC[C@@H](C(=O)NCc3ccc(Cl)cc3)N2C1=O .
Return: > 25 µM

Enquiry: I have this compound here, COc1ccc(OC)c(/C=N/NC(=O)Cc2csc3nc(-c4ccc(Br)cc4)cn23)c1 , and I need its recorded TGI.
Return: > 100 µM

Enquiry: Request the reported TGI associated with Cc1ccc2c(c1)C(C)Cc1c(ncnc1-n1cnc3ccccc31)N2C (stereo unspecified)
Return: 16.6 µM

Enquiry: What TGI value was documented for this compound, O=c1cc(NCCCCCO)[nH]c(=O)[nH]1 ?
Return: > 100 µM

Enquiry: Query (compound): Cc1ccc(C2=Nc3cc(C)c(Cl)cc3S(=O)(=O)NN2)cc1 ; field requested: TGI
Return: > 100 µM

Enquiry: Requested read-out: TGI. Entry: FC(F)(F)c1nc(N2CCCC2)ncc1-c1nnnn1-c1ccc(Cl)cc1
Return: 48 µM

Enquiry: // TGI lookup, key: CC(C)(C)c1cc(C(=O)Nc2cc(Br)c(Br)cc2S(N)(=O)=O)cc(C(C)(C)C)c1O
Return: 36.4 µM

Enquiry: May I ask what TGI has been recorded for N#Cc1c(-c2ccccc2)nc(SCC2CO2)nc1N1CCOCC1 (stereo unspecified) ?
Return: > 100 µM

Enquiry: Please report the recorded TGI for N#Cc1c(N2CCCC2)nsc1NCc1ccccc1 .
Return: > 100 µM

Enquiry: Which TGI value belongs to NC1=NC(=O)/C(=C/c2ccccc2[N+](=O)[O-])C(N)=N1 ?
Return: > 100 µM

Enquiry: Find the recorded TGI belonging to CCOC(=O)CN1C(=O)c2c(c(C)n(-c3ccccc3)c2C)C1=O and report it.
Return: > 100 µM

Enquiry: What value of TGI has been recorded for this entry: O=C(Nc1ccc(Cl)c(Cl)c1)c1cccc(NC2=C(Cl)C(=O)N(Cc3ccccc3)C2=O)c1
Return: > 100 µM

Enquiry: Endpoint output: TGI of Cc1cn(Cc2ccccc2CCO)c(=S)[nH]c1=O . Value?
Return: > 100 µM

Enquiry: Entry COc1ccccc1/C=C/C1=NN(c2cccc(S(=O)(=O)O)c2)C2(C1)SCC(=O)N2c1nc2ccccc2s1 (stereo unspecified) : reported TGI = ?
Return: > 100 µM

Enquiry: Requested field: TGI. Item: COc1cc(C(=O)/C=C/c2c(C)n([O-])c3ccc(C)cc3[n+]2=O)cc(OC)c1OC
Return: 27.6 µM

Enquiry: Sample O=C(O)CC(NC(=O)C(F)(F)F)C(=O)NC(Cc1ccc(O)cc1)C(=O)O (stereo not drawn) (Tfa-Asp-Tyr-OH; configuration not given here) — what was its TGI?
Return: > 50 µM

Enquiry: # TGI lookup, item CC1(C)CC(=O)C(CCC(=O)/C=C/c2ccccc2)C(=O)C1
Return: > 100 µM

Enquiry: # input compound: C/C(CC/C(C)=N/O)=N\O ; wanted: its TGI
Return: > 100 µM

Enquiry: Using the record for O=C(NC1CCN(Cc2ccccc2)CC1)c1cc(-c2ccncc2)nc2ccc(Cl)cc12 , report its TGI.
Return: > 100 µM

Enquiry: So what's the measured TGI for this one? N#CN=C(N)c1sc2nc3c(c(-c4ccc(Br)cc4)c2c1N)CCCC3
Return: 59.7 µM

Enquiry: I have this compound here, CC(=O)NCCc1c2c(c3nccc4c3c1Nc1ccccc1-4)OCS2 , and I need its recorded TGI.
Return: 10.8 µM

Enquiry: Entry C/C(CN1C(=O)c2ccccc2C1=O)=N\NS(=O)(=O)c1ccc(C)cc1 : reported TGI = ?
Return: > 100 µM

Enquiry: I would be grateful if you could share the reported TGI for Cc1ccc(-c2nc(C)c(C(=O)Nc3ccc(Cl)cc3)s2)cc1 .
Return: > 100 µM

Enquiry: Consider the compound shown here: O=[N+]([O-])c1nc(-c2ccccn2)[nH]c1[N+](=O)[O-] What is its recorded TGI?
Return: > 100 µM

Enquiry: Item under review: COC1=C2CC(C)CC(OC)C(O)C(C)/C=C(\C)C(OC(N)=O)C(OC)/C=C\C=C(/C)C(=O)NC(=C(C=NC(C)(C)C)C1=O)C2=O (stereo unspecified) . Reported TGI?
Return: 15 µM

Enquiry: Which TGI is listed for CN(C)CCOc1cccc2c1C(=O)c1ccccc1C2=O ?
Return: 26.2 µM

Enquiry: Which TGI is listed for O=C1C(Cl)=C(Nc2cccc(Cl)c2)C(=O)N1Cc1ccccc1 ?
Return: 26.9 µM

Enquiry: May I ask what TGI has been recorded for Cc1cccc(NC(=O)CCc2ccc(N3C(N)=NC(N)=NC3(C)C)cc2)c1 ?
Return: > 100 µM

Enquiry: I have this compound here, O=C(O)c1cc2ccccc2c(N=Nc2ccccc2)c1O , and I need its recorded TGI.
Return: 36.4 µM

Enquiry: Param item = CC(=O)Nc1ccc(Nc2cc(=O)[nH]c(=O)[nH]2)cc1 ; retrieve measured TGI.
Return: > 100 µM

Enquiry: Given CCCCCCCCCCCCNC(C)=O , state its recorded TGI.
Return: 35.7 µM

Enquiry: State the recorded TGI for this entry: COc1ccc(-c2cc(-c3cc(Cl)ccc3Cl)nc3n[nH]c(N)c23)cc1
Return: 83.6 µM

Enquiry: Dear colleague, I am looking for the recorded TGI of the following compound: CC(C)/C=C1\CCC(CN2CCCC2)C1=O (stereo unspecified)
Return: 23.1 µM

Enquiry: Which TGI is listed for Clc1ncnc(Cl)c1Cl ?
Return: > 100 µM

Enquiry: Recorded TGI of CCOC(=O)c1c2c(c(O)c3ccccc3c(O)n(Cc3ccc(OC)cc3)c1C)C(=O)C=CC2=O , please.
Return: > 100 µM

Enquiry: Query (compound): O=C1OC(c2ccccc2)=N/C1=C\c1cccnc1 ; field requested: TGI
Return: > 100 µM

Enquiry: Query (compound): CC1(C)[C@H](C(=O)O)N2C(=O)[C@@H](NS(=O)(=O)c3ccc([N+](=O)[O-])cc3)[C@H]2S1(=O)=O ; field requested: TGI
Return: > 100 µM

Enquiry: Look up TGI: Nc1ccc2c(c1)C(=O)C(=O)c1c-2nc2ccccn12
Return: 6.8 µM

Enquiry: I would be grateful if you could share the reported TGI for CC1(C)CC23C4COC(=O)C2CCC1C3CC4=O (stereo unspecified) .
Return: 27.2 µM

Enquiry: Can you look up the measured TGI of CC1CC[C@]2(C(=O)O)CCC3(COC(=O)/C=C\c4ccc(O)cc4)C(=CCC4[C@@]5(C)CC[C@H](O)C(C)(C)C5CC[C@]43C)[C@@H]2[C@H]1C (stereo partly specified) for me?
Return: 25.7 µM

Enquiry: Could you tell me which TGI is on file for Cc1ccccc1NC(=O)C(=O)C(C#N)c1ccc(Cl)cc1 (stereo unspecified) ?
Return: > 100 µM
